Where do these numbers come from? They come from patent US20260130395A1.

Recorded Stability of Plant-Derived Cannabinoid Compounds in AB White, 21-25° C. for the following compounds
assay: Stability of cannabinoid compounds and Vitamin E components in Beverage 1 (AB White) by LCMSMS; type: physicochemical; details: AB White stored at 21-25° C.; 17 days
measured endpoint: Stability of Plant-Derived Cannabinoid Compounds in AB White, 21-25° C. (µg/mL)

[
  {
    "compound": "CCCCCc1cc(O)c2c(c1)OC(C)(CCC=C(C)C)C=C2 (stereo not shown)",
    "unit tag": "µg/mL",
    "result": 0.323
  },
  {
    "compound": "C=C(C)[C@@H]1CCC(C)=C[C@H]1c1c(O)cc(CCC)cc1O",
    "unit tag": "µg/mL",
    "result": 0.150
  },
  {
    "compound": "CCCCCc1cc(O)c2c(c1)OC(C)(C)c1ccc(C)cc1-2",
    "unit tag": "µg/mL",
    "result": 2.70
  },
  {
    "compound": "C=C(C)[C@@H]1CCC(C)=C[C@H]1c1c(O)cc(CCCCC)c(C(=O)O)c1O",
    "unit tag": "µg/mL",
    "result": 1.72
  }
]

---

Recorded Stability of Plant-Derived Cannabinoid Compounds in AB White, 8° C. for the following molecules
experiment: Stability of cannabinoid compounds and Vitamin E components in Beverage 1 (AB White) by LCMSMS; assay type: physicochemical; details: AB White stored at 8° C.; 12 days
measured endpoint: Stability of Plant-Derived Cannabinoid Compounds in AB White, 8° C. (µg/mL)

[
  {
    "molecule": "C=C(C)[C@@H]1CCC(C)=C[C@H]1c1c(O)cc(CCCCC)c(C(=O)O)c1O [CBDA, cannabidiolic acid]",
    "unit tag": "µg/mL",
    "result": 1.71
  },
  {
    "molecule": "CCCCCc1cc(O)c2c(c1)OC1(C)CCC3C1C2C3(C)C (stereo not drawn) [CBL, cannabicyclol]",
    "unit tag": "µg/mL",
    "result": 0.553
  },
  {
    "molecule": "CCCCCc1cc(O)c(C/C=C(\\C)CCC=C(C)C)c(O)c1 [CBG, cannabigerol]",
    "unit tag": "µg/mL",
    "result": 4.87
  }
]

---

experiment: Stability of cannabinoid compounds and Vitamin E components in Beverage 1 (AB White) by LCMSMS; type: physicochemical; conditions: AB White stored at 21-25° C.; 3 days
Recorded Stability of Plant-Derived Cannabinoid Compounds in AB White, 21-25° C. for the following molecules
measured endpoint: Stability of Plant-Derived Cannabinoid Compounds in AB White, 21-25° C. (µg/mL)

[
  {
    "molecule": "CCCCCc1cc(O)c2c(c1)OC1(C)CCC3C1C2C3(C)C (stereo not shown)",
    "unit tag": "µg/mL",
    "result": 0.543
  },
  {
    "molecule": "CCCc1cc(O)c2c(c1)OC(C)(C)[C@@H]1CCC(C)=C[C@@H]21 [THCV, delta-9-tetrahydrocannabivarin]",
    "unit tag": "µg/mL",
    "result": 3.54
  },
  {
    "molecule": "CCCCCc1cc(O)c2c(c1)OC(C)(CCC=C(C)C)C=C2 (stereo not shown)",
    "unit tag": "µg/mL",
    "result": 0.311
  },
  {
    "molecule": "CCCCCc1cc(O)c2c(c1)OC(C)(C)[C@@H]1CCC(C)=C[C@@H]21 [D9 THC, delta-9-tetrahydrocannabinol, reference compound]",
    "unit tag": "µg/mL",
    "result": 11.9
  }
]
